- TARGET_OR_TEST_SYSTEM: T1, mouse MMP-2 (Mus musculus, UniProt P33434)
- T1 construct: purchased R&D Systems 924-MP-010
- T1 sequence (P33434 110-662): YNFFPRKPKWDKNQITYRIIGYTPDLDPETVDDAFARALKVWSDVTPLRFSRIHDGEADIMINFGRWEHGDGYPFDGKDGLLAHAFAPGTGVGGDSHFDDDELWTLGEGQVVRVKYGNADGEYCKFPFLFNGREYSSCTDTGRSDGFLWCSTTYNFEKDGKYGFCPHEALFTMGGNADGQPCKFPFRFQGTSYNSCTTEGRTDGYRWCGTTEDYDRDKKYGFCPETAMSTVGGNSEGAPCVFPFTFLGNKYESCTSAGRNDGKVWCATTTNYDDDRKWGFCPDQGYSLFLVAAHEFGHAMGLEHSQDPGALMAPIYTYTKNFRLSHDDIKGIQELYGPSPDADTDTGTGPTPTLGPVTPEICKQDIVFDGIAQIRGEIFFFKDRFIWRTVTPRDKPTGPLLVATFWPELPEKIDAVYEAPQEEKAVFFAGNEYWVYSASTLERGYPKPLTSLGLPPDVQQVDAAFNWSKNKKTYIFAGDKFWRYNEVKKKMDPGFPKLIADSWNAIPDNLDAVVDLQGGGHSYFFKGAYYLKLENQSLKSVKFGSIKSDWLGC
- ASSAY: Enzyme inhibition assay (single point inhibition, IC50/Ki,app), substrate M-2350
- Format: biochemical
- ASSAY_CONTEXT: small-scale sFab; Table 10
MEASUREMENT_KIND: Ki (nM)
Entry rule: numbers only, all in nM.

**Q:** Name the reported Ki value associated with the molecule M0273-A11: affinity matured variant of M237-D02, sFab (antibody, V domains shown) VH: EVQLLESGGGLVQPGGSLRLSCAASGFTFSRYDMWWVRQAPGKGLEWVSVISPSGGATFYADSVKGRFTISRDNSKNTLYLQMNSLRAEDTAVYYCAKDRAYGDYVGWNGFDYWGQGTLVTVSS VL: QDIQMTQSPATLSLSPGERATLSCRASQSISSFLAWYQQKPGQAPRLLIYDASYRATGIPARFSGSGSGTDFTLTISSLEPEDYAVYYCQQRGNWPITFGQGTRLEIK
**A:** 32
